This section presents compounds with their documented EC50 values.
assayed_target: AMPK
protocol_notes: AMPK activation, enzyme-linked immunosorbent assay
Type: biochemical
experimental_parameters: Table 14, compounds of Table 7

Answered examples (2):
compound	EC50
Cc1nc2cc(OC3CCN(C(=O)c4ccc(C(=O)NC5CCN(Cc6ccc(OC(F)(F)F)cc6)C[C@H]5F)cn4)CC3)ccc2s1 (stereo partly drawn)	< 1000 nM
COc1ccc(C(=O)C2CCN(C(=O)c3ccc(C(=O)NC4CCN(Cc5ccc(C#N)cc5)C[C@@H]4C)cn3)CC2)cc1 (stereo partly drawn) [Compound 7-93]	< 1000 nM

Next, consider the following compound.
# value of EC50, AMPK, item N#Cc1ccc(CN2CCC(NC(=O)c3ccc(C(=O)N4CCC(C(=O)c5ccc(N6CCCC6)cc5)CC4)nc3)[C@H](F)C2)cc1 (stereo partly drawn) = < 1000 nM

###

Here, each record is paired with measured pEC50 data.
assayed_target: AMPK
protocol_notes: AMPK activation, enzyme-linked immunosorbent assay
Format: biochemical
experimental_parameters: Table 10, compounds of Table 3
pEC50: −log10 of the molar value.

Before answering, review these 3 worked examples.
compound	pEC50
NC(=O)c1ccc(CN2CC3CC2CN3C(=O)c2nc3ccc(OC4CCN(c5ccc(C(F)(F)F)cc5)CC4)cc3o2)cc1 (centres unmarked)	6.00 to 7.00
O=C(NC1CCN(Cc2ccncc2)CC1)c1nc2ccc(OC3CCN(c4ccc(C(F)(F)F)cc4)CC3)cc2s1	6.00 to 7.00
O=C(NC1CCN(Cc2cccnc2)CC1)c1ccc2c(c1)CN(Cc1ccc(F)cc1)CC2	5.00 to 6.00

Record `N#Cc1ccc(CN2CCC(NC(=O)c3cnc(OC4CCN(c5ccc(C#N)cc5)CC4)s3)CC2)cc1` . Reported pEC50: > 7.00

Documented pEC50 of N#Cc1ccc(CN2CC3CC2CN3C(=O)c2nc3ccc(OC4CCN(c5ccc(C(F)(F)F)cc5)CC4)cc3o2)cc1 (centres unmarked) : 6.00 to 7.00

Documented pEC50 of `CC(C)(C)OC(=O)N1CCC(Oc2ncc(C(=O)NC3CCN(Cc4ccc(C#N)cc4)CC3)s2)CC1` : 5.00 to 6.00

Form field pEC50, entry `O=C(NC1CCN(C(=O)c2ccc(F)cc2)CC1)c1nc2ccc(OC3CCN(c4ccc(C(F)(F)F)cc4)CC3)cc2o1` : > 7.00

pEC50 reported for this compound `O=C(NC1CCN(Cc2ccncc2)CC1)c1nc2ccc(OC3CCN(c4ccc(C(F)(F)F)cc4)CC3)cc2o1` : > 7.00

###

assayed_target: AMPK
protocol_notes: AMPK activation, enzyme-linked immunosorbent assay
Format: biochemical
experimental_parameters: Table 8, compounds of Table 1; formate salt
Structures can show the parent of a compound that is named as a salt.
recorded_metric: EC50

Reported EC50 of O=C(NC1CCN(Cc2ccncc2)CC1)c1cc2cc(OC3CCN(c4ccc(C(F)(F)F)cc4)CC3)ccc2o1 [Compound 1-105, formate salt] : < 100 nM

###

assayed_target: AMPK
protocol_notes: AMPK activation, enzyme-linked immunosorbent assay
Format: biochemical
experimental_parameters: Table 9, compounds of Table 2
Quick reference: EC50 of the listed items.

CC(=O)n1c2c(c3cc(C(=O)NC4CCN(Cc5cccnc5)CC4)ccc31)CN(Cc1ccc(C(F)(F)F)cc1)CC2 1 to 5 µM
N#Cc1ccc(CN2CCC(NC(=O)c3ccc4[nH]c5c(c4c3)CN(Cc3ccc(C(N)=O)cc3)CC5)CC2)cc1 10 to 50 µM
N#Cc1ccc(NC(=O)N2CCC(NC(=O)c3ccc4[nH]c5c(c4c3)CN(Cc3ccc(C(F)(F)F)cc3)CC5)CC2)cc1 1 to 5 µM

Form field EC50 for item `O=C(NC1CCN(S(=O)(=O)c2ccc(C(F)(F)F)cc2)CC1)c1ccc2[nH]c3c(c2c1)CN(Cc1ccc(C(F)(F)F)cc1)CC3` on AMPK: 1 to 5 µM

Entry `O=C(NC1CCN(Cc2ccccc2)CC1)c1ccc2[nH]c3c(c2c1)CN(C(=O)OCc1ccccc1)CC3` ; assay system AMPK; EC50 recorded at 10 to 50 µM

Record `Cn1c2c(c3cc(C(=O)NC4CCN(Cc5ccc(C#N)cc5)CC4)ccc31)CN(Cc1ccc(C(F)(F)F)cc1)CC2` has AMPK EC50 equal to < 0.5 µM

Given the compound `O=C(NC1CCN(Cc2ccc(C(F)(F)F)cc2)CC1)c1ccc2[nH]c3c(c2c1)CN(Cc1ccccc1)CC3` and test system AMPK, the measured EC50 is 1 to 5 µM
